IC50: recorded values
molecular target: SARS-CoV-2 3CL-protease (Severe acute respiratory syndrome coronavirus 2)
Value type: IC50

{"columns": ["Line notation", "Value type", "Result"],
 "data": [
  ["CC(C)C[C@@H](C(=O)N1C[C@]2(C[C@H]1C#N)C(=O)Nc1ccccc12)N(C)C(=O)c1cc2nccnc2[nH]1", "IC50", "< 100 nM"],
  ["CCCOC[C@H](NC(=O)c1cc2c(OC)cccc2[nH]1)C(=O)N1C[C@]2(C[C@H]1C#N)C(=O)Nc1ccccc12", "IC50", "< 100 nM"],
  ["CC(C)C[C@@H](C(=O)N1C[C@]2(C[C@H]1C#N)C(=O)Nc1ccccc12)N(C)C(=O)c1n[nH]c(-c2ccccc2)n1", "IC50", "100 to 1000 nM"],
  ["CN(C(=O)CN1CCOCC1)[C@@H](CC(C)(C)F)C(=O)N1C[C@]2(C[C@H]1C#N)C(=O)Nc1ccccc12", "IC50", "100 to 1000 nM"],
  ["CC(C)C[C@@H](C(=O)N1C[C@]2(C[C@H]1C#N)C(=O)Nc1ccccc12)N(C)C(=O)c1cccc(-c2cccc(Cl)c2)c1", "IC50", "100 to 1000 nM"],
  ["CC(C)C[C@@H](C(=O)N1C[C@]2(C[C@H]1C#N)C(=O)Nc1ccccc12)N(C)C(=O)c1ccc(OC(F)(F)F)c(F)c1", "IC50", "< 100 nM"]
]}

---

pIC50: −log10 of the molar value.
The following are reported pIC50 results, target or system UniProt:P0DTD1.
Value type: pIC50

{"columns": ["Compound", "Value type", "Result"],
 "data": [
  ["CC(C)(C)C[C@H](NC(=O)c1cc(OC(F)(F)F)c2ncccc2c1)C(=O)N1C[C@]2(C[C@H]1C#N)C(=O)Nc1ccccc12 [Example 137]", "pIC50", "> 7.00"],
  ["CCCC[C@@H](C(=O)N1C[C@]2(C[C@H]1C#N)C(=O)Nc1ccccc12)N(C)C(=O)c1cc2c(F)cc(F)cc2[nH]1 [Example 384]", "pIC50", "> 7.00"],
  ["CC(C)C[C@@H](C(=O)N1C[C@]2(C[C@H]1C#N)C(=O)Nc1ccccc12)N(C)C(=O)c1ccc(-c2ccccc2)cc1 [Example 277]", "pIC50", "6.00 to 7.00"]
]}

---

SARS-CoV-2 3CL-protease (Severe acute respiratory syndrome coronavirus 2) pIC50 data
pIC50: −log10 of the molar value.
Value type: pIC50

{"columns": ["Line notation", "Result"],
 "data": [
  ["CC(C)C[C@@H](O)C(=O)N(C)[C@@H](CC1CC1)C(=O)N1C[C@]2(C[C@H]1C#N)C(=O)Nc1ccccc12", "> 7.00"],
  ["CC(C)C[C@@H](C(=O)N1C[C@]2(C[C@H]1C#N)C(=O)Nc1ccccc12)N(C)C(=O)c1cc2ccc(Br)cc2cn1", "6.00 to 7.00"],
  ["N#C[C@@H]1C[C@@]2(CN1C(=O)[C@H](CC1CC1)NC(=O)c1c(Cl)cccc1Cl)C(=O)Nc1ccc(Cl)cc12", "> 7.00"],
  ["COc1cc(C(=O)N(C)[C@@H](CC(C)C)C(=O)N2C[C@]3(C[C@H]2C#N)C(=O)Nc2ccccc23)nc2ccccc12", "6.00 to 7.00"],
  ["CN(C(=O)C1(c2ccncc2)CC1)[C@@H](CC(C)(C)F)C(=O)N1C[C@]2(C[C@H]1C#N)C(=O)Nc1ccc(Cl)cc12", "> 7.00"],
  ["CC(C)C[C@@H](C(=O)N1C[C@]2(C[C@H]1C#N)C(=O)Nc1ccccc12)N(C)C(=O)c1ccc2ccncc2c1", "6.00 to 7.00"]
]}

---

pIC50: −log10 of the molar value.
The compounds below have reported pIC50 for SARS-CoV-2 3CL-protease (Severe acute respiratory syndrome coronavirus 2, UniProt P0DTD1).

{"columns": ["Compound", "pIC50"],
 "data": [
  ["CC(C)C[C@@H](C(=O)N1C[C@]2(C[C@H]1C#N)C(=O)Nc1ccccc12)N(C)C(=O)c1ccc(F)c(C(F)(F)F)c1 [Example 177]", "> 7.00"],
  ["CC(C)C[C@@H](C(=O)N1C[C@]2(C[C@H]1C#N)C(=O)Nc1ccccc12)N(C)C(=O)c1nnc(-c2ccc(F)cc2)o1 [Example 355]", "> 7.00"],
  ["CC(=O)C[C@@H](C(=O)N1C[C@]2(C[C@H]1C#N)C(=O)Nc1ccccc12)N(C)C(=O)c1cc2c(F)cc(F)cc2[nH]1 [Example 442]", "> 7.00"],
  ["[2H]C([2H])([2H])N(C(=O)c1cn(C2CCC2)nn1)[C@@H](CCCC)C(=O)N1C[C@]2(C[C@H]1C#N)C(=O)Nc1ccccc12 [Example 392]", "> 7.00"],
  ["CC(C)C[C@@H](C(=O)N1C[C@]2(C[C@H]1C#N)C(=O)Nc1ccccc12)N(C)C(=O)c1cc(F)c2nc(C3CC3)[nH]c2c1 [Example 340]", "6.00 to 7.00"],
  ["CC(C)(F)C[C@H](NC(=O)COc1ccc(F)cc1F)C(=O)N1C[C@]2(C[C@H]1C#N)C(=O)Nc1ccc(Cl)cc12 [Example 445]", "6.00 to 7.00"],
  ["CC(C)(C)C[C@H](NC(=O)Nc1c(F)cccc1F)C(=O)N1C[C@]2(C[C@H]1C#N)C(=O)Nc1ccccc12 [Example 437]", "6.00 to 7.00"],
  ["COc1cc(C(=O)N(C)[C@@H](CC(C)C)C(=O)N2C[C@]3(C[C@H]2C#N)C(=O)Nc2ccccc23)cc2c1=NC(C1CC1)N=2 (stereo partly shown) [Example 308]", "> 7.00"],
  ["CC(C)C[C@@H](C(=O)N1C[C@]2(C[C@H]1C#N)C(=O)Nc1ccccc12)N(C)C(=O)c1ccccc1Cl [Example 162]", "> 7.00"],
  ["CC(C)(C)C[C@H](NC(=O)c1cn(-c2ccc(Cl)cc2)nn1)C(=O)N1C[C@]2(C[C@H]1C#N)C(=O)Nc1ccccc12 [Example 140]", "6.00 to 7.00"],
  ["CC(C)C[C@@H](C(=O)N1C[C@]2(C[C@H]1C#N)C(=O)Nc1ccccc12)N(C)C(=O)c1cc(F)cc(Cl)c1 [Example 173]", "> 7.00"],
  ["COc1ccccc1CN(C(=O)C(F)(F)F)[C@@H](CC(C)C)C(=O)N1C[C@]2(C[C@H]1C#N)C(=O)Nc1ccccc12 [Example 431]", "< 6.00"],
  ["CN(C(=O)CCN1CCOCC1)[C@@H](CC(C)(C)F)C(=O)N1C[C@]2(C[C@H]1C#N)C(=O)Nc1ccccc12 [Example 537]", "> 7.00"]
]}

---

Parameter IC50, tested on SARS-CoV-2 3CL-protease (Severe acute respiratory syndrome coronavirus 2), listed per item.
Value type: IC50

{"columns": ["Line notation", "Result"],
 "data": [
  ["CC(C)C[C@@H](C(=O)N1C[C@]2(C[C@H]1C#N)C(=O)Nc1ccccc12)N(C)C(=O)c1cc2cccnc2[nH]1", "< 100 nM"],
  ["CC(C)C[C@@H](C(=O)N1C[C@]2(C[C@H]1C#N)C(=O)Nc1ccccc12)N(C)C(=O)c1nc2cc(Cl)c(Cl)cc2[nH]1", "100 to 1000 nM"],
  ["CC(C)(C)C[C@H](NC(=O)c1cc2c(Cl)cccc2[nH]1)C(=O)N1C[C@]2(C[C@H]1C#N)C(=O)Nc1ccc(Cl)cc12", "< 100 nM"],
  ["CC(C)C[C@H](NC(=O)c1cc2c(F)cccc2[nH]1)C(=O)N1C[C@]2(C[C@H]1C#N)C(=O)Nc1c(Cl)cccc12", "< 100 nM"],
  ["CN(C(=O)C(F)(F)c1cccnc1)[C@@H](CC(C)(C)F)C(=O)N1C[C@]2(C[C@H]1C#N)C(=O)Nc1ccc(Cl)cc12", "< 100 nM"],
  ["Cc1ccc2cc(C(=O)N(C)[C@@H](CC(C)(C)F)C(=O)N3C[C@]4(C[C@H]3C#N)C(=O)Nc3ccccc34)[nH]c2n1", "< 100 nM"]
]}

---

This document collects pIC50 values reported for UniProt:P0DTD1.
pIC50: −log10 of the molar value.

{"columns": ["Line notation", "Tgt", "pIC50"],
 "data": [
  ["CC(C)C[C@@H](C(=O)N1C[C@]2(C[C@H]1C#N)C(=O)Nc1ccc(-c3cccnc3)cc12)N(C)C(=O)c1cc2c(F)cc(F)cc2[nH]1", "UniProt:P0DTD1", "> 7.00"],
  ["[2H]C([2H])([2H])N(C(=O)c1cnn2cc(Cl)ccc12)[C@@H](CCCC)C(=O)N1C[C@]2(C[C@H]1C#N)C(=O)Nc1ccccc12", "UniProt:P0DTD1", "> 7.00"],
  ["CN(C(=O)[C@H](O)C(C)(C)C)[C@@H](CC1CC1)C(=O)N1C[C@]2(C[C@H]1C#N)C(=O)Nc1ccccc12", "UniProt:P0DTD1", "> 7.00"],
  ["CC(C)C[C@@H](C(=O)N1C[C@]2(C[C@H]1C#N)C(=O)Nc1ccccc12)N(C)C(=O)c1ccc2ncccc2c1", "UniProt:P0DTD1", "> 7.00"],
  ["CC(C)C[C@@H](C(=O)N1C[C@]2(C[C@H]1C#N)C(=O)Nc1ccccc12)N(C)C(=O)c1ccc(F)c2ccccc12", "UniProt:P0DTD1", "> 7.00"],
  ["CCCOC[C@@H](C(=O)N1C[C@]2(C[C@H]1C#N)C(=O)Nc1ccccc12)N(C)C(=O)c1cc2c(F)cc(F)cc2[nH]1", "UniProt:P0DTD1", "> 7.00"],
  ["CC(C)C[C@@H](C(=O)N1C[C@]2(C[C@H]1C#N)C(=O)Nc1ccccc12)N(C)C(=O)c1nc2ccccc2[nH]1", "UniProt:P0DTD1", "> 7.00"],
  ["CC(C)C[C@@H](C(=O)N1C[C@]2(C[C@H]1C#N)C(=O)Nc1ccccc12)N(C)C(=O)c1nnn(C(C)(C)C)n1", "UniProt:P0DTD1", "> 7.00"],
  ["CC(C)C[C@@H](C(=O)N1C[C@]2(C[C@H]1C#N)C(=O)Nc1ccccc12)N(C)C(=O)c1ccncc1", "UniProt:P0DTD1", "6.00 to 7.00"],
  ["CC(C)C[C@@H](C(=O)N1C[C@]2(C[C@H]1C#N)C(=O)Nc1ccccc12)N(C)C(=O)c1ccc2ccccc2n1", "UniProt:P0DTD1", "6.00 to 7.00"],
  ["CN(C(=O)[C@@H](O)c1ccc(F)cc1)[C@@H](CC1CC1)C(=O)N1C[C@]2(C[C@H]1C#N)C(=O)Nc1ccccc12", "UniProt:P0DTD1", "> 7.00"],
  ["[2H]C([2H])([2H])N(C(=O)c1cc2c(F)cc(F)cc2[nH]1)[C@@H](CC(C)(C)F)C(=O)N1C[C@]2(C[C@H]1C#N)C(=O)Nc1ccc(Cl)cc12", "UniProt:P0DTD1", "> 7.00"],
  ["CC(C)C[C@@H](C(=O)N1C[C@]2(C[C@H]1C#N)C(=O)Nc1ccccc12)N(C)C(=O)c1cc(OC2CC2)n2nc(C3CC3)c(C(=O)C(F)(F)F)c2c1", "UniProt:P0DTD1", "6.00 to 7.00"]
]}

This collection of values is drawn from patent US12540141B2.
